Answer each item with its documented pIC50.
EXPERIMENTAL_SYSTEM: Lysine-specific demethylase 5A (Homo sapiens, UniProt P29375)
Sequence (P29375 whole entry): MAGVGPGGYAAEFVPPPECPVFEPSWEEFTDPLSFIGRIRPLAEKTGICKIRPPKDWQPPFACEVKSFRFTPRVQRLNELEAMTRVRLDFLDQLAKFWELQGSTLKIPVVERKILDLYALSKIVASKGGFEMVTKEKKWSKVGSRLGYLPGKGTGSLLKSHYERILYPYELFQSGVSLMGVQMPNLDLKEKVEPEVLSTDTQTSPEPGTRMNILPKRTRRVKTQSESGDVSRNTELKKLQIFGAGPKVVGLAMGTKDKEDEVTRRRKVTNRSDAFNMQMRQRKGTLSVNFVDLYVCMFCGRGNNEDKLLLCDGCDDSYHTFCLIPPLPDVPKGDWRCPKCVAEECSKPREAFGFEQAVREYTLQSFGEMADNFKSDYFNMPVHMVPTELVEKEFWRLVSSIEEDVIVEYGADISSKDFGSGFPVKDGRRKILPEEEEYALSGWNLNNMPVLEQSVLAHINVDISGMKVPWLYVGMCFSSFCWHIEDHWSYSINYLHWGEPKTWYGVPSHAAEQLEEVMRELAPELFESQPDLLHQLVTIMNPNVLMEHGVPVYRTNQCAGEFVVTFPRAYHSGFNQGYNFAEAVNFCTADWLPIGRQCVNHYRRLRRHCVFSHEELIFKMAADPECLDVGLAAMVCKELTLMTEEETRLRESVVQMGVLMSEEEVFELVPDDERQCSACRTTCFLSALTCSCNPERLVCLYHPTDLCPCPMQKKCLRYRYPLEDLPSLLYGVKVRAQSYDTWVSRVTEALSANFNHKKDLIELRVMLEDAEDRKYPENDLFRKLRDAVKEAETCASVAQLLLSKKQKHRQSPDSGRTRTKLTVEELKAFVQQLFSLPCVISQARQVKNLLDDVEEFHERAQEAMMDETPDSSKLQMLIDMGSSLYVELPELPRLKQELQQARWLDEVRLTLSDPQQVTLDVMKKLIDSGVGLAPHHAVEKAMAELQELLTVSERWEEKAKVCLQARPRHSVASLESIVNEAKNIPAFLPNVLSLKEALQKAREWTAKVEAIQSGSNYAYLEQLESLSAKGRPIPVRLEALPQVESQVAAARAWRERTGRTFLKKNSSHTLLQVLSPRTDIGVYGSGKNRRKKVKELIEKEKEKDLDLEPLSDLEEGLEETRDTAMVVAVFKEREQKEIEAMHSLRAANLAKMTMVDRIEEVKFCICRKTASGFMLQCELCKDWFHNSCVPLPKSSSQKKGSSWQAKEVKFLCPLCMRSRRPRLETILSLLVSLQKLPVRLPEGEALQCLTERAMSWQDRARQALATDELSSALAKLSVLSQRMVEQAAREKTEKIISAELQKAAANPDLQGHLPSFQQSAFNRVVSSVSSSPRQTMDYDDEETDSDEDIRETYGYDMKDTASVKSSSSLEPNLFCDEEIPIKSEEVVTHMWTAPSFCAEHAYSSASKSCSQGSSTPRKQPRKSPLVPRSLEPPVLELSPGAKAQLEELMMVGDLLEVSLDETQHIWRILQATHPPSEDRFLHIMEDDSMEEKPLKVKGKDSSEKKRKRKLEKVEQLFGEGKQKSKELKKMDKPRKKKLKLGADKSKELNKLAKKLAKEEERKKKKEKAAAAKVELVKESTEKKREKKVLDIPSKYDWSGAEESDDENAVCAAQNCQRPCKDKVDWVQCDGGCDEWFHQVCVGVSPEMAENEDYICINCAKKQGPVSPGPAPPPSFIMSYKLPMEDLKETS
EXPERIMENTAL_DETAILS: Fluorescence Polarization Binding Assay
One number for each entry, as −log10 of the molar value.

CCCCc1oc2ccccc2c1C(=O)c1cc(I)c(OCC[N+](C)(C)C)c(I)c1 : 4.52

Look up pIC50: CCCCc1oc2ccccc2c1C(=O)c1cc(I)c(OCCN)c(I)c1
4.59

Origin of the recorded values: BindingDB's records for doi:10.1021/bi3009278
